binders and their reported CD73 enzymatic activity assay IC50 (Calu-6 cells, CellTiter-Glo)
- target_of_assay: T1, human CD73 expressed on the cell surface (human, UniProt P21589 27-549)
- T1 sequence: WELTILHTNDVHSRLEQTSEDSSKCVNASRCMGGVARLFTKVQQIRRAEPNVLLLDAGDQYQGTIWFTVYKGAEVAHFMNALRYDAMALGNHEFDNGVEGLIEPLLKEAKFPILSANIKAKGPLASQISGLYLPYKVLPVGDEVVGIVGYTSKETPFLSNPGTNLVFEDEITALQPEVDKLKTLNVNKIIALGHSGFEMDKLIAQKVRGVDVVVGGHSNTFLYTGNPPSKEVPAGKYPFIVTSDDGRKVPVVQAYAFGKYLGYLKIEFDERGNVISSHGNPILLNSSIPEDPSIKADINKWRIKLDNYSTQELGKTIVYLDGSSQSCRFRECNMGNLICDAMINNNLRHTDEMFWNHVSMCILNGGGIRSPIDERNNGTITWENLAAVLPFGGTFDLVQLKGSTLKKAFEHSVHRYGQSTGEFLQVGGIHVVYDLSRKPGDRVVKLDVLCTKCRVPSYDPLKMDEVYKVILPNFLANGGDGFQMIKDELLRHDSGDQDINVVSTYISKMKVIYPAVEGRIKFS
- run_description: cell-based or functional assay
State just the number; it will be interpreted in µg/mL.

Guide cases for CD73 enzymatic activity assay IC50 (Calu-6 cells, CellTiter-Glo), answers given:
binder	observed
Oleclumab (antibody, V domains shown) VH: EVQLLESGGGLVQPGGSLRLSCAASGFTFSSYAYSWVRQAPGKGLEWVSAISGSGGRTYYADSVKGRFTISRDNSKNTLYLQMNSLRAEDTAVYYCARLGYGRVDEWGRGTLVTVSS VL: QSVLTQPPSASGTPGQRVTISCSGSLSNIGRNPVNWYQQLPGTAPKLLIYLDNLRLSGVPDRFSGSKSGTSASLAISGLQSEDEADYYCATWDDSHPGWTFGGGTKLTVL	0.167
ADI-34086 (antibody, human IgG4 S228P, kappa, F234A L235A, V domains shown, Parental antibody) VH: EVQLLESGGGLVQPGGSLRLSCAASGFTFSNYAMSWVRQAPGKGLEWVSAISGSGGSTYYADSVKGRFTISRDNSKNTLYLQMNSLRAEDTAVYYCARGGPYGSGSYWDTFDYWGQGTLVTVSS VL: EIVMTQSPATLSVSPGERATLSCRASQSVSSNLAWYQQKPGQAPRLLIYGASTRATGIPARFSGSGSGTEFTLTISSLQSEDFAVYYCQQYTNHYTFGGGTKVEIKR	0.089

## Task Given the binder ADI-34101 (antibody, human IgG4 S228P, kappa, F234A L235A, V domains shown, Parental antibody) VH: QVQLVESGGGVVQPGRSLRLSCAASGFTFSSYGMHWVRQAPGKGLEWVAVISYEGSNKYYADSVKGRFTISRDNSKNTLYLQMNSLRAEDTAVYYCARSRYDWSLFDIWGQGTMVTVSS VL: EIVLTQSPGTLSLSPGERATLSCRASQSVSSSYLAWYQQKPGQAPRLLIYGASSRATGIPDRFSGSGSGTDFTLTISRLEPEDFAVYYCQQYVLYPFTFGGGTKVEIKR , what is its reported CD73 enzymatic activity assay IC50 (Calu-6 cells, CellTiter-Glo)?
## Result 0.153
